assayOverview: Acute 7-day toxicity after a single administration (LD50, probit analysis)
Assay type: in vivo
testParameters: in vivo, ip, single administration, fasted NMRI mouse, 7 days; read-out: LD50 i.p.
measureName: LD50 at 168 h (mg/kg)
Express it in mg/kg; write the number only.

LD50 at 168 h measured on CCOC(=O)C(C)(C)Oc1ccc(Cl)cc1 [Clofibrat, reference compound] = 566

The measured LD50 at 168 h associated with CC(C)(Oc1cc(-c2ccccc2)n(-c2ccccc2)n1)C(N)=O reads 571

###

Hi there, I'd appreciate the recorded LD50 at 168 h for every entry that follows.
assayOverview: Acute 7-day toxicity after a single administration (LD50, probit analysis)
Format: in vivo
testParameters: in vivo, po, single administration, fasted NMRI mouse, 7 days; read-out: LD50 p.o.

The recorded LD50 at 168 h for entry CC(C)(Oc1cc(-c2ccccc2)n(-c2ccccc2)n1)C(N)=O [Substanz A] equals > 1470 mg/kg

Record summary for CCOC(=O)C(C)(C)Oc1ccc(Cl)cc1 [Clofibrat, reference compound] : reported LD50 at 168 h = > 1470 mg/kg

Entry CC(C)(Oc1cc(-c2ccc(Cl)cc2)n(-c2ccccc2)n1)C(N)=O [Substanz Nr. 2] , LD50 at 168 h reported as > 1470 mg/kg
